Biological target: Cannabinoid receptor 1 (Homo sapiens, UniProt P21554)
Sequence (P21554 whole entry): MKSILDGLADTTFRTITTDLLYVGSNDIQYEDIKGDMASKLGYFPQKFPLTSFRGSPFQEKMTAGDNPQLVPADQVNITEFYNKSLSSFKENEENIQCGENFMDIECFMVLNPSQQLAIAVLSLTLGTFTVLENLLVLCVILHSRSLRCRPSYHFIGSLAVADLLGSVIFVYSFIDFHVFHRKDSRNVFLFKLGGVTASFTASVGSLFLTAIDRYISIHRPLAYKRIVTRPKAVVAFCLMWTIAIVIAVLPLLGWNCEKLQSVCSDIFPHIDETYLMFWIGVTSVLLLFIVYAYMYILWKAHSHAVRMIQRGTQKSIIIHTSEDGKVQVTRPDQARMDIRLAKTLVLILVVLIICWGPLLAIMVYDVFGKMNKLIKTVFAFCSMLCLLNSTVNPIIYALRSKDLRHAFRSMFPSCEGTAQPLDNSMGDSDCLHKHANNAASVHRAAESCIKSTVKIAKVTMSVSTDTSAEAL
Assay: Displacement of [3H]CP-55940 from human CB1 receptor expressed in CHO cell membrane at > 10 uM after 90 mins by scintillation counting analysis
Assay type: cell membranes

Structure smiles string | Activity, %
CCCCCn1cc(C(=O)NC23CC4CC(CC(C4)C2)C3)c(=O)n2nc(-c3ccoc3)cc12 | 19
CCCCCn1cc(C(=O)NC23CC4CC(CC(C4)C2)C3)c(=O)n2nc(-c3ccco3)cc12 | 34
CCCCCn1cc(C(=O)NC23CC4CC(CC(C4)C2)C3)c(=O)n2nc(-c3cccs3)cc12 | 26
CCCCCn1cc(C(=O)NC2CCCCC2)c(=O)n2nc(-c3ccc(Cl)cc3Cl)cc12 | 38
CCCCCn1cc(C(=O)NC23CC4CC(CC(C4)C2)C3)c(=O)n2nc(-c3cc(C)cs3)cc12 | 13
CCCCCn1cc(C(=O)NC23CC4CC(CC(C4)C2)C3)c(=O)n2nc(-c3ccccc3)cc12 | 43
CCCCCn1cc(C(=O)NC23CC4CC(CC(C4)C2)C3)c(=O)n2nc(C)c(-c3ccccc3)c12 | 15
CCCCCn1cc(C(=O)NC23CC4CC(CC(C4)C2)C3)c(=O)n2nc(-c3ccccc3C)cc12 | 22
CCCCCn1cc(C(=O)NC23CC4CC(CC(C4)C2)C3)c(=O)n2nc(-c3ccc(C)s3)cc12 | 31
CCCCCn1cc(C(=O)NC2CCCCC2)c(=O)n2nc(-c3ccco3)cc12 | 21
CCCCCn1cc(C(=O)NC2CCCCCC2)c(=O)n2nc(-c3ccc(Cl)cc3)cc12 | 40
CCCCCn1cc(C(=O)NC2CCCCCC2)c(=O)n2nc(-c3ccco3)cc12 | 16
CCCCCn1cc(C(=O)NC2CCCCC2)c(=O)n2nc(-c3ccc(Cl)cc3)cc12 | 15
CCCCCn1cc(C(=O)NC23CC4CC(CC(C4)C2)C3)c(=O)n2nc(-c3ccc(Cl)cc3Cl)cc12 | 37
CCCCCn1cc(C(=O)NC23CC4CC(CC(C4)C2)C3)c(=O)n2nc(C)c(Br)c12 | 1

---

Biological target: Cannabinoid receptor 2 (Homo sapiens, UniProt P34972)
Sequence (P34972 whole entry): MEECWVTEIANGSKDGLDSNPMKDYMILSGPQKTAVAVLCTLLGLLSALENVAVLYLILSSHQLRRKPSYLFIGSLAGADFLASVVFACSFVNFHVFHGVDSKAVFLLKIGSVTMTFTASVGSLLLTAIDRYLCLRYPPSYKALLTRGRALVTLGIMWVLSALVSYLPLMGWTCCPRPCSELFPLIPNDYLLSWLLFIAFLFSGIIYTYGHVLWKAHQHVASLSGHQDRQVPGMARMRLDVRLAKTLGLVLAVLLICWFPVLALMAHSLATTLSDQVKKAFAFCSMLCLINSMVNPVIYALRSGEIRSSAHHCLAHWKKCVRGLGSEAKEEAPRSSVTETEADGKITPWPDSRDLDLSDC
Assay: Inverse agonist activity at human CB2 receptor expressed in CHO cell membrane assessed as increase in forskolin-stimulated cAMP production at 1 uM by scintillation counting analysis relative to WIN55212-2

Structure smiles string | Target entity | Activity [%]
CCCCCn1cc(C(=O)NC23CC4CC(CC(C4)C2)C3)c(=O)n2nc(-c3ccccc3Cl)cc12 | Cannabinoid receptor 2 (Homo sapiens, UniProt P34972) | 114
CCCCCn1cc(C(=O)NC23CC4CC(CC(C4)C2)C3)c(=O)n2nc(C)cc12 | Cannabinoid receptor 2 (Homo sapiens, UniProt P34972) | 56
CCCCCn1cc(C(=O)NC2CCCCCC2)c(=O)n2nc(-c3ccc(C)cc3)cc12 | Cannabinoid receptor 2 (Homo sapiens, UniProt P34972) | 81
CCCCCn1cc(C(=O)NC2CCCCCC2)c(=O)n2nc(CC)cc12 | Cannabinoid receptor 2 (Homo sapiens, UniProt P34972) | 137
CCCCCn1cc(C(=O)NC23CC4CC(CC(C4)C2)C3)c(=O)n2nc(-c3ccc(C)cc3)cc12 | Cannabinoid receptor 2 (Homo sapiens, UniProt P34972) | 138
CCCCCn1cc(C(=O)NC2CCCCC2)c(=O)n2nc(-c3ccccc3)cc12 | Cannabinoid receptor 2 (Homo sapiens, UniProt P34972) | 92
CCCCCn1cc(C(=O)NC23CC4CC(CC(C4)C2)C3)c(=O)n2nc(CC)cc12 | Cannabinoid receptor 2 (Homo sapiens, UniProt P34972) | 173
CCCCCn1cc(C(=O)NC23CC4CC(CC(C4)C2)C3)c(=O)n2nc(-c3ccccc3)cc12 | Cannabinoid receptor 2 (Homo sapiens, UniProt P34972) | 163
CCCCCn1cc(C(=O)NC2CCCCCC2)c(=O)n2nc(-c3ccc(Cl)cc3Cl)cc12 | Cannabinoid receptor 2 (Homo sapiens, UniProt P34972) | 61
CCCCCn1cc(C(=O)NC2CCCCCC2)c(=O)n2nc(-c3ccccc3Cl)cc12 | Cannabinoid receptor 2 (Homo sapiens, UniProt P34972) | 53
CCCCCn1cc(C(=O)NC23CC4CC(CC(C4)C2)C3)c(=O)n2nc(-c3ccoc3)cc12 | Cannabinoid receptor 2 (Homo sapiens, UniProt P34972) | 56
